Target: KRAS^G12V (Homo sapiens, UniProt P01116+P62937, G12V)
Sequence (P01116 1-169 isoform P01116-2 G12V): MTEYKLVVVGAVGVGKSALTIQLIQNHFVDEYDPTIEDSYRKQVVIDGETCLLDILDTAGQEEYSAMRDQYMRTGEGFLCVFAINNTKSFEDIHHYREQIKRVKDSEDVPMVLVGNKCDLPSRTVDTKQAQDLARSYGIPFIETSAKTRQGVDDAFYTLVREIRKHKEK
Sequence (P62937 whole entry): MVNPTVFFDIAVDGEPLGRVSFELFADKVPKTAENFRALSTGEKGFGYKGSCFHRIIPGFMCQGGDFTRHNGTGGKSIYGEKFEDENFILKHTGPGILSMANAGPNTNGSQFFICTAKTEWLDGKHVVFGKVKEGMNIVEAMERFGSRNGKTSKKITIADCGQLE
Assay: RAS binding affinity of compound-bound CYPA (Kd2), SPR
Settings: steady state, (95% CI)
quantity: Kd (nM)
State just the number; it will be interpreted in nM.

>>> result("CCn1c(-c2cc(N3CCN(C4CC4)CC3)cnc2[C@H](C)OC)c2c3cc(ccc31)-c1csc(n1)C[C@H](NC(=O)[C@H]1[C@@H]3COC[C@@H]31)C(=O)N1CCC[C@H](N1)C(=O)OCC(C)(C)C2 [RMC-7977]")
85

# input Quick check: Kd of CCn1c(-c2cccnc2[C@H](C)OC)c2c3cc(ccc31)-c1csc(n1)C[C@H](NC(=O)[C@H]1CCO1)C(=O)N1CCC[C@H](N1)C(=O)OCC(C)(C)C2 [Compound 3] ?
# output 818

# input Fill in: Kd of CCn1c(-c2cc(N3CCN(C)CC3)cnc2[C@H](C)OC)c2c3cc(ccc31)-c1csc(n1)C[C@H](NC(=O)[C@H]1CCO1)C(=O)N1CCC[C@H](N1)C(=O)OCC(C)(C)C2 [Compound 4] is ___
# output 292

# input # query: Kd of entry CCn1c(-c2cccnc2[C@H](C)OC)c2c3cc(ccc31)-c1cccc(c1)C[C@H](NC(=O)[C@H](C(C)C)N(C)C(=O)[C@H]1CCN(C(C)=O)C1)C(=O)N1CCC[C@H](N1)C(=O)OCC(C)(C)C2 [Compound 1]
# output 6550
